Target: Cyclin-dependent kinase 5/CDK5 activator 1 (Homo sapiens, UniProt Q00535)
Sequence (Q00535 whole entry): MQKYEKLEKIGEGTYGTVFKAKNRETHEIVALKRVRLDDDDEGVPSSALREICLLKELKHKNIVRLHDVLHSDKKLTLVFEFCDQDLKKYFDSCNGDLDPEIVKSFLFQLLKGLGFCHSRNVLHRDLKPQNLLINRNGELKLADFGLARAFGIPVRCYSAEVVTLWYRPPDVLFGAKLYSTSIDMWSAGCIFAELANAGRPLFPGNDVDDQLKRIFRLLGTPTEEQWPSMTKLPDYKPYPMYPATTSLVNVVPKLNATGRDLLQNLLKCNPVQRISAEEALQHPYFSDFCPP
Sequence (Q15078 whole entry, further chain): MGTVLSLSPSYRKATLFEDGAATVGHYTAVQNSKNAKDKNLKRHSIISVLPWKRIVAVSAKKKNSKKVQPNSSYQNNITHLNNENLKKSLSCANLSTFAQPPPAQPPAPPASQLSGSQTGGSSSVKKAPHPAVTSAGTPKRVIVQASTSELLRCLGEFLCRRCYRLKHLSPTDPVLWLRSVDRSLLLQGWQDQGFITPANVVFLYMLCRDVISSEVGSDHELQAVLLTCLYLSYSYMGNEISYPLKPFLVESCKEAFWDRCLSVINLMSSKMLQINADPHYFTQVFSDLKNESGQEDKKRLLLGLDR
Experiment: Inhibition of human recombinant Cdk5/p25 incubated for 15 mins by scintillation proximity assay
Type: protein-complex assay
endpoint.name: IC50 (µM)
Number in µM, nothing else.

{"columns": ["structure", "uom", "IC50"],
 "data": [
  ["O=S(=O)(c1cc(-c2nc3ccccc3s2)cs1)N1CCC[C@@H]1CO", "µM", 8.88],
  ["O=S(=O)(NCc1ccccn1)c1cc(-c2nc3ccccc3s2)cs1", "µM", 5.47],
  ["Cc1ccnc(NS(=O)(=O)c2cc(-c3nc4ccccc4s3)cs2)c1", "µM", 8.27],
  ["O=S(=O)(Nc1ccc(N2CCOCC2)nc1)c1cc(-c2nc3ccccc3s2)cs1", "µM", 7.7]
]}

Summary for this compound, O=S(=O)(Nc1ncccc1O)c1cc(-c2nc3ccccc3s2)cs1 : IC50 is 9.94
